Experiment: Binding affinity to recombinant Salmonella typhimurium His6-tagged OASS-A expressed in Escherichia coli by fluorimetric titration method
Design: species or system Salmonella enterica subsp. enterica serovar Typhimurium
result type: Kd (µM)
Expressed in µM, but write only the number.

Please review the following examples before continuing.
compound: O=C(O)[C@@]1(Cc2ccccc2)C[C@@H]1c1ccccc1
observed measurement: 50
--
compound: Cc1ccc(C[C@]2(C(=O)O)C[C@@H]2c2ccccc2)cc1 (racemic)
observed measurement: 0.077
--
compound: O=C(O)[C@]1(Cc2ccccc2)C[C@H]1c1ccccc1
observed measurement: 0.067

Item CC[C@]1(C(=O)O)C[C@@H]1c1ccccc1 has what recorded Kd?
1200

GET /values?readout=Kd&item= O=C(O)[C@@]1(Cc2ccc(Cl)cc2)C[C@@H]1c1ccccc1
84

Recorded Kd for O=C(O)[C@H]1C[C@@H]1c1ccccc1 (relative stereo) , please?
9.2

Reported Kd for O=C(O)[C@]1(Cc2ccc(Cl)cc2)C[C@H]1c1ccccc1 : what is it?
0.054

Query (compound): O=C(O)[C@@]1(Cc2ccccc2)C[C@@H]1c1ccccc1 (racemic) ; field requested: Kd
0.2

For the compound shown here, CC[C@@]1(C(=O)O)C[C@H]1c1ccccc1 , give the reported Kd.
12.1

Form field: reported Kd of O=C(O)[C@@]1(Cc2ccc(Cl)cc2)C[C@@H]1c1ccccc1 (racemic)
0.156

Kd for Cc1ccc(C[C@]2(C(=O)O)C[C@@H]2c2ccccc2)cc1 ?
81

This collection of values is drawn from ChEMBL document CHEMBL3784941.
